targetSystem: α5β1 integrin on U87MG cells (human, UniProt P08648 42-1049; P05556 21-798)
Sequence (P08648 42-1049 limits assumed, chain 1 of 2): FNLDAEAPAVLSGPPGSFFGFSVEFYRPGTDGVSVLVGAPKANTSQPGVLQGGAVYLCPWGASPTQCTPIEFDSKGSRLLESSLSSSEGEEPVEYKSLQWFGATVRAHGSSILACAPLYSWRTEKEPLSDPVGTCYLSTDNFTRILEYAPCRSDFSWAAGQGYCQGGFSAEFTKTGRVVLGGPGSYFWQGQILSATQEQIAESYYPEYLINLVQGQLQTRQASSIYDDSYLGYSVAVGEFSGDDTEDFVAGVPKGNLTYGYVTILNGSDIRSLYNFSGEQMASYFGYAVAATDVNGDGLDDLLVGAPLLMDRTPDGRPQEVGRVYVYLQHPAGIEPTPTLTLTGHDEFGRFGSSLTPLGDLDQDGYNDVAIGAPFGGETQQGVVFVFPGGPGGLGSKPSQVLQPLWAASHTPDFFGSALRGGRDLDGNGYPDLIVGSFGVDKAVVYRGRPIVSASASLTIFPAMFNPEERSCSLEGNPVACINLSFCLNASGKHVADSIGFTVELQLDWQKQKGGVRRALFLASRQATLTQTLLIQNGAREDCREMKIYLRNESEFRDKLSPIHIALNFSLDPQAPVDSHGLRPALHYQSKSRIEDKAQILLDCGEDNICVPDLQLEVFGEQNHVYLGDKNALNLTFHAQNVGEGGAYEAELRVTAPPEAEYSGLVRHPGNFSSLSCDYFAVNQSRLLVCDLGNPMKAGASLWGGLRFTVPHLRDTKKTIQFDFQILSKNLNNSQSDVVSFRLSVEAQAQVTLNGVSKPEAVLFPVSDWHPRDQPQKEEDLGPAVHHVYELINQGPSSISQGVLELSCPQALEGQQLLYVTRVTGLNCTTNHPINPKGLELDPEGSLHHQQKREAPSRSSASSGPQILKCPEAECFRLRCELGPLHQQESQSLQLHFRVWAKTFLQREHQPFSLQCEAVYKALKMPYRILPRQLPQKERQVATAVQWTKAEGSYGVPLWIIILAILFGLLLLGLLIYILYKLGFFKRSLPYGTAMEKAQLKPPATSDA
Sequence (P05556 21-798 limits assumed, chain 2 of 2): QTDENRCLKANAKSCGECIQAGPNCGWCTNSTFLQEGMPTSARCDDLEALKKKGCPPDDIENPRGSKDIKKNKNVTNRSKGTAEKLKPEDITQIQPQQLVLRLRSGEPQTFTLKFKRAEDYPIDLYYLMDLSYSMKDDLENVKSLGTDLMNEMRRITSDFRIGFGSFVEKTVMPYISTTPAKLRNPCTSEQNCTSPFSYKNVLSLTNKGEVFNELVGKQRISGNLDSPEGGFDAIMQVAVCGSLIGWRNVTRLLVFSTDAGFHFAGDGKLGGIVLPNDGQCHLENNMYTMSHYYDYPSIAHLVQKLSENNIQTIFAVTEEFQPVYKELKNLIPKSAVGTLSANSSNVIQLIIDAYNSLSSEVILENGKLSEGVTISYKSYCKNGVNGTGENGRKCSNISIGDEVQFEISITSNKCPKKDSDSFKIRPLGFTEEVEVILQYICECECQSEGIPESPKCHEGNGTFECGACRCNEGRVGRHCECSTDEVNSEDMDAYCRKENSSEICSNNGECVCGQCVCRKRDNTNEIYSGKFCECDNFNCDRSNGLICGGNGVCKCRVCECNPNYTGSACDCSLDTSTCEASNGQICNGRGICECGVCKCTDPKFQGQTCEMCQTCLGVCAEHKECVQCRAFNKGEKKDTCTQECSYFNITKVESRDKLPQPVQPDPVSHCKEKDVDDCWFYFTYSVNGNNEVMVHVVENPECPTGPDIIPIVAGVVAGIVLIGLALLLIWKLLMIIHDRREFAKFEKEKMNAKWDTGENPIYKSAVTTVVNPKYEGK
method: cell-based or functional assay
quantity: % Inhibition (%)
Give bare numbers, in %.

Record summary for A-15B08 IgG4 Chimera (antibody, V domains shown) VH: QVQLKESGPGLVAPSQSLSITCTISGFSLTSYGVHWVRQPPGKGLEWLVVIWSDGSTTYNSTLKSRLSISKDNSKSQVFFKMNSLQTDDTAMYYCARHYDYDGDWFAYWGQGTLVTVSA VL: QIVLTQSPAIMSASLGERVTMTCTASSRVSSNSLHWYQQKPGSSPKLWIYSTSNLASGVPARFSGSGSGTSYSLTISSMEAEDAATYYCHQYLRSPPTFGGGTKLEIK : reported % Inhibition = 86
